read-out: Cytochrome P450 3A7 (Homo sapiens) (UniProt P24462); test: LTEA_HepaRG_CYP3A7: Life Technologies and Expression Analysis (LTEA) Assay for CYP3A7 using HepaRG (AID 2283492); details: mRNA level, 48 h; actives raise or lower the signal
Sequence (P24462 whole entry, looked up): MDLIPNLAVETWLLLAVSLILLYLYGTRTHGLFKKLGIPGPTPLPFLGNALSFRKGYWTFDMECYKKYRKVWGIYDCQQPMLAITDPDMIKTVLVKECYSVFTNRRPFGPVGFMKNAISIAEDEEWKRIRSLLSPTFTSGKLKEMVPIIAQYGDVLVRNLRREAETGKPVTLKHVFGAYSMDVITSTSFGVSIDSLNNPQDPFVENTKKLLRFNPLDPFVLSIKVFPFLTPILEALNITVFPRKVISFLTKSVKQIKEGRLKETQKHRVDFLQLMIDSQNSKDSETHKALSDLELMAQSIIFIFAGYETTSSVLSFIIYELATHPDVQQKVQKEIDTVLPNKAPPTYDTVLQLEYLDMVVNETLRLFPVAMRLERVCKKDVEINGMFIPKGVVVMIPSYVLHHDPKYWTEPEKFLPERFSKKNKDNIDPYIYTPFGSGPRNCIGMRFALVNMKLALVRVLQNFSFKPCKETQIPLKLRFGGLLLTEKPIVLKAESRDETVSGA
Calls of active or inactive are those of the source. How the source made its calls: active means hit-call score of the fitted dose curve at least 0.9, where 1 is the maximum; inactive means score below 0.9.
# output must be one of active, inactive

compound	label.class
Cc1ccc(N)cc1O	inactive
C[C@](N)(Cc1ccc(O)c(O)c1)C(=O)O	inactive
CC[C@H]1CC[C@H](NCc2cc3c(cc2OC)[C@H]2C[C@H]2C(=O)N3C)[C@H](c2ccccc2)N1	active
CC(C)=CCCC(C)=CC=O	inactive
Nc1ccc(Nc2ccccc2)cc1	active

query: Record request — test call for `CCn1nc(Cc2ccccc2)cc1C1CCN(C[C@H]2C[C@H](N(C)[C@@H](C(=O)O)C(C)C)C[C@@H]2c2cccc(F)c2)CC1`
result: inactive

query: Likewise for `O=C(O)c1cc(N=Nc2ccc(S(=O)(=O)Nc3ccccn3)cc2)ccc1O` ?
result: inactive

query: Likewise for CC(C)=CCCC(C)CCO (stereo not drawn) ?
result: inactive

query: Likewise for `On1ccccc1=S` ?
result: inactive

query: Cool, now CCCCC(CC)COC(=O)CCCCCCCCC(=O)OCC(CC)CCCC (stereo not drawn)
result: inactive

query: One more compound: `Clc1nc(Cl)c(Cl)c(Cl)c1Cl`
result: inactive

query: Would you mind doing `CC(C)(O)c1coc(S(=O)(=O)NC(=O)Nc2c3c(cc4c2CCC4)CCC3)c1` as well?
result: active

query: What about this compound? `Cn1c(=O)cc(Oc2ccc(F)cc2F)c2cnc(NCC(C)(C)O)nc21`
result: active

query: Now the same for `CCc1cc(SCc2sc(-c3ccc(C(F)(F)F)cc3)nc2CN2CCN(c3ccc(OC)cc3)CC2)ccc1OCC(=O)O`
result: active

query: CNS(=O)(=O)c1cc(C(=O)N2CCC(CCN3C4CCC3CC(n3c(C)nc5ccccc53)C4)(c3cccc(F)c3)CC2)c(Cl)cc1F (stereo not drawn) ?
result: active

All values here come from PubChem BioAssay (EPA / NIEHS).
